assay: Effect of pH and cyclodextrins on the fraction of the open form (diazepine ring-opening) of benzodiazepines; type: physicochemical; details: no cyclodextrin, pH 2, approx. 23° C.
Measured Fraction open accompanies every entry in the list below.

Below are worked cases with known answers.
Molecule: CN1C(=O)CN=C(c2ccccc2)c2cc(Cl)ccc21 [Diazepam]
Fraction open: 0.30
//
Molecule: Cc1nnc2n1-c1ccc(Cl)cc1C(c1ccccc1)=NC2 [alprazolam]
Fraction open: 0.82
//
Molecule: Cc1ncc2n1-c1ccc(Cl)cc1C(c1ccccc1F)=NC2 [midazolam]
Fraction open: 0.74

Would you kindly look at the next entry?
## Input Recorded Fraction open for Cc1nnc2n1-c1ccc(Cl)cc1C(c1ccccc1Cl)=NC2 [triazolam] , please?
## Output 0.53
